Entry source: patent US10959986B2

# ASSAYED SYSTEM: indoleamine 2,3-dioxygenase (IDO) (Homo sapiens, UniProt P14902)
# Construct: media containing IFNγ (#285-IF/CF, R&D Systems) at a final concentration of 25 ng/mL; endogenous in cells; host or cells: HeLa (ATCC CCL-2), induced with IFN-gamma
# Sequence (P14902 whole entry): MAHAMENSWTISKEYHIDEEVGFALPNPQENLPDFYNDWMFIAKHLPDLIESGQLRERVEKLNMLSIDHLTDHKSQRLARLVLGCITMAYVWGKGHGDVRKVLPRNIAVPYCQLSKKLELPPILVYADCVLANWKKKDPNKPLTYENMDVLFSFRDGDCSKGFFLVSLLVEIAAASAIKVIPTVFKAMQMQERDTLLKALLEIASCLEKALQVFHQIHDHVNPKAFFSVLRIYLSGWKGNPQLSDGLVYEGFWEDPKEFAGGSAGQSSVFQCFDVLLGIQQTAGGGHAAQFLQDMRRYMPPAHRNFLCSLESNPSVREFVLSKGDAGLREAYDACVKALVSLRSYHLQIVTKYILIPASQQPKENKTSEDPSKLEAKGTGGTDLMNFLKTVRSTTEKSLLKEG
# EXPERIMENT SUMMARY: HeLa cell-based indoleamine 2,3-dioxygenase (IDO) assay
# STUDY CONDITIONS: HeLa cells with IFNγ 25 ng/mL, 48 hour incubation, kynurenine production; read-out: IDO Hela IC50
Record form. Attribute: IC50. Fill in for each entry.
Answer with a number only, understood to be in nM.

Which IC50 reading was recorded for the compound CCOc1ncc(Nc2cc([C@H](CC)CC(=O)O)ccc2-c2ccn3nccc3n2)cn1 (single isomer, unassigned) [Example 79] ?
400

Item: CCOc1ncc(Nc2cc([C@H](CC)CC(=O)O)ccc2-c2ccc(Cl)c(F)c2)cn1 (single isomer, unassigned) [Example 72]
210

Item: CCOc1ncc(Nc2cc([C@H](CC)CC(=O)O)ccc2-c2cnn(Cc3ccc(OC)cc3)c2)cn1 (single isomer, unassigned) [Example 47]
10

Item: COC[C@@H](CC(=O)O)c1ccc(-c2ccc3c(c2)OCO3)c(Nc2ccc(C#N)cc2)c1 (single isomer, unassigned) [Example 34]
320

Item: CC[C@H](CC(=O)O)c1ccc(-c2c(C)noc2C)c(Nc2ccc(Cl)cc2)c1 (single isomer, unassigned) [Example 17]
10

* * *

Record form. Attribute: pIC50. Fill in for each entry.
# ASSAYED SYSTEM: indoleamine 2,3-dioxygenase (IDO) (Homo sapiens, UniProt P14902)
# Construct: media containing IFNγ (#285-IF/CF, R&D Systems) at a final concentration of 25 ng/mL; endogenous in cells; host or cells: HeLa (ATCC CCL-2), induced with IFN-gamma
# EXPERIMENT SUMMARY: HeLa cell-based indoleamine 2,3-dioxygenase (IDO) assay
# STUDY CONDITIONS: HeLa cells with IFNγ 25 ng/mL, 48 hour incubation, kynurenine production; read-out: IDO Hela IC50
In textbook form, pIC50 equals minus log to base ten of the concentration in mol/L.

Which pIC50 reading was recorded for the compound CCOc1ncc(Nc2cc([C@H](CC)CC(=O)O)ccc2-c2nnc(C)s2)cn1 (single isomer, unassigned) ?
6.40

Item: CCOc1ncc(Nc2cc([C@H](CC)CC(=O)O)ccc2-c2ccnc(N3CCOCC3)n2)cn1 (single isomer, unassigned)
6.12

Item: COC[C@H](CC(=O)O)c1ccc(-c2cnn(Cc3ccc(OC)cc3)c2)c(Nc2ccc(C#N)cc2)c1 (single isomer, unassigned)
7.30

Item: CC[C@H](CC(=O)O)c1ccc(-c2cnn(C)c2)c(Nc2ccc(C(F)(F)F)cc2)c1 (single isomer, unassigned)
7.40

Item: CCOc1cnc(-c2ccc([C@H](CC)CC(=O)O)cc2Nc2cnc(OCC)nc2)cn1 (single isomer, unassigned)
6.35

Item: CCc1ncc(Nc2cc([C@H](CC)CC(=O)O)ccc2-c2sc(C)nc2C)cn1 (single isomer, unassigned)
6.96

Item: COC[C@H](CC(=O)O)c1ccc(-c2ccc3c(c2)OCO3)c(Nc2ccc(C#N)cc2)c1 (single isomer, unassigned)
7.30

Item: CC[C@H](CC(=O)O)c1ccc(-c2cnn(C)c2)c(Nc2ccc(Cl)cn2)c1 (single isomer, unassigned)
6.33

Item: CC[C@H](CC(=O)O)c1ccc(-c2cnn(C)c2)c(Nc2ccc(Cl)cc2)c1 (single isomer, unassigned)
8.00

Item: CC[C@H](CC(=O)O)c1ccc(-c2cnn(C)c2)c(Nc2ccc(Cl)c(F)c2)c1 (single isomer, unassigned)
7.70

Item: CC[C@H](CC(=O)O)c1ccc(-c2cnn(C)c2)c(Nc2ccc(F)cc2)c1 (single isomer, unassigned)
7.40

Item: CCOc1ncc(Nc2cc([C@H](CC)CC(=O)O)ccc2-c2ccc3nc(C)sc3c2)cn1 (single isomer, unassigned)
6.30

* * *

# ASSAYED SYSTEM: indoleamine 2,3-dioxygenase (IDO) (Homo sapiens)
# Construct: media containing IFNγ (#285-IF/CF, R&D Systems) at a final concentration of 25 ng/mL; endogenous in cells; host or cells: HeLa (ATCC CCL-2), induced with IFN-gamma
# EXPERIMENT SUMMARY: HeLa cell-based indoleamine 2,3-dioxygenase (IDO) assay
# STUDY CONDITIONS: HeLa cells with IFNγ 25 ng/mL, 48 hour incubation, kynurenine production; read-out: IDO Hela IC50
MEASURED METRIC: pIC50
In textbook form, pIC50 equals minus log to base ten of the concentration in mol/L.

Short answer please: pIC50, indoleamine 2,3-dioxygenase (IDO) (Homo sapiens), entry CC[C@H](CC(=O)O)c1ccc(-c2cnn(C)c2)c(Nc2ccc(C#N)cc2)c1 (single isomer, unassigned)
6.96

Item: CCOc1ncc(Nc2cc([C@H](CC)CC(=O)O)ccc2-c2ccc(Cl)cc2F)cn1 (single isomer, unassigned)
6.64

Item: CC[C@@H](CC(=O)O)c1ccc(C2CCN(C(=O)OC(C)(C)C)CC2)c(Nc2cnc(C)nc2)c1 (single isomer, unassigned)
6.12

Item: COC[C@@H](CC(=O)O)c1ccc(-c2ccoc2)c(Nc2ccc(C#N)cc2)c1 (single isomer, unassigned)
8.00

Item: COC[C@H](CC(=O)O)c1ccc(-c2ccoc2)c(Nc2ccc(C#N)cc2)c1 (single isomer, unassigned)
7.70

Item: CCOc1ncc(Nc2cc([C@H](CC)CC(=O)O)ccc2-c2cnn(-c3ccc(F)cc3)c2)cn1 (single isomer, unassigned)
6.47

Item: CCOc1ncc(Nc2cc([C@H](CC)CC(=O)O)ccc2-c2c(C)noc2C)cn1 (single isomer, unassigned)
7.05

* * *

Record form. Attribute: pIC50. Fill in for each entry.
# ASSAYED SYSTEM: indoleamine 2,3-dioxygenase (IDO) (Homo sapiens)
# Construct: media containing IFNγ (#285-IF/CF, R&D Systems) at a final concentration of 25 ng/mL; endogenous in cells; host or cells: HeLa (ATCC CCL-2), induced with IFN-gamma
# EXPERIMENT SUMMARY: HeLa cell-based indoleamine 2,3-dioxygenase (IDO) assay
# STUDY CONDITIONS: HeLa cells with IFNγ 25 ng/mL, 48 hour incubation, kynurenine production; read-out: IDO Hela IC50
# Procedure: Assessment of Inhibitor Activity in HeLa Cell-Based Indoleamine 2,3-Dioxygenase (IDO) Assay. […] IDO activity was assessed as a function of kynurenine production as follows: HeLa cells were seeded in a 96-well culture plate at a density of 5,000 cells/well and allowed to equilibrate overnight. […] The percentage activity at each inhibitor concentration was determined and IC50 values assessed using nonlinear regression.
In textbook form, pIC50 equals minus log to base ten of the concentration in mol/L.

Which pIC50 reading was recorded for the molecule CCc1ncc(Nc2cc([C@@H](CC)CC(=O)O)ccc2C2CCN(C(=O)OC(C)(C)C)CC2)cn1 (single isomer, unassigned) ?
7.70

Item: COC[C@H](CC(=O)O)c1ccc(-c2cnn(Cc3ccccc3)c2)c(Nc2ccc(C#N)cc2)c1 (single isomer, unassigned)
6.35

Item: COC[C@@H](CC(=O)O)c1ccc(-c2sc(C)nc2C)c(Nc2ccc(C#N)cc2)c1 (single isomer, unassigned)
6.66

Item: CCOc1ncc(Nc2cc([C@H](CC)CC(=O)O)ccc2-c2ccc3c(cnn3C)c2)cn1 (single isomer, unassigned)
6.82

Item: CCOc1ncc(Nc2cc([C@H](CC)CC(=O)O)ccc2C2=CC3CCC(C2)N3C(=O)OC(C)(C)C)cn1 (single isomer, unassigned)
6.41

* * *

Record form. Attribute: IC50. Fill in for each entry.
# ASSAYED SYSTEM: indoleamine 2,3-dioxygenase (IDO) (Homo sapiens)
# Construct: media containing IFNγ (#285-IF/CF, R&D Systems) at a final concentration of 25 ng/mL; endogenous in cells; host or cells: HeLa (ATCC CCL-2), induced with IFN-gamma
# EXPERIMENT SUMMARY: HeLa cell-based indoleamine 2,3-dioxygenase (IDO) assay
# STUDY CONDITIONS: HeLa cells with IFNγ 25 ng/mL, 48 hour incubation, kynurenine production; read-out: IDO Hela IC50

Short answer please: IC50, indoleamine 2,3-dioxygenase (IDO) (Homo sapiens), entry CC[C@H](CC(=O)O)c1ccc(-c2cnn(C)c2)c(NC(=O)Nc2ccc(Cl)cc2F)c1 (single isomer, unassigned)
≥ 1000 nM

Item: CC[C@H](CC(=O)O)c1ccc(-c2cnn(C)c2)c(Nc2ccccn2)c1 (single isomer, unassigned)
≥ 1000 nM

Item: CC[C@H](CC(=O)O)c1ccc(-c2nc(C)cs2)c(Nc2ccc(Cl)cc2)c1 (single isomer, unassigned)
≥ 1000 nM

Item: CCOc1ncc(Nc2cc([C@H](CC)CC(=O)O)ccc2C2CCN(C(=O)OC(C)(C)C)CC2)cn1 (single isomer, unassigned)
20 nM

Item: CCOc1ncc(Nc2cc([C@H](CC)CC(=O)O)ccc2-c2sc(C)nc2C)cn1 (single isomer, unassigned)
10 nM

Item: CCOc1ncc(Nc2cc([C@H](CC)CC(=O)O)ccc2-c2nc3ccccc3s2)cn1 (single isomer, unassigned)
950 nM
